# credit: patent US20240270826A1

Overview of recorded pKd for various binders
Subject of test: T1, SARS-CoV-2 S2 (aa686-1208) (Wuhan) (SARS-CoV-2 Wuhan, UniProt P0DTC2 686-1208)
T1 construct: NRC; FLAG, 6xHis tags
Assay details: SPR, antigen on chip
Scale: negative log10 of molar concentration, which is what pKd denotes.

// solved cases for pKd follow
* NRCoV2-S2A4 VHH (VHH) VHH: QVQLVQSGGGLVQAGGSLRLSCAVSGSPFRSNVMEWYRQAPGKQRELVASISTGGSRTYTDSVKGRFTISRDNAKNEAFLQMNSLKPEDTAVYYCHAAARDSHGIYLLDTWGQGTQVTVSS | 7.83
* NRCoV2-S2G4 VHH (VHH) VHH: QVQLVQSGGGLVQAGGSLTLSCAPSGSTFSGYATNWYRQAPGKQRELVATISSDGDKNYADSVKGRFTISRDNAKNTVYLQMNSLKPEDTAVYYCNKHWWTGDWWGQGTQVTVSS | 9.38
* NRCoV2-S2G3 VHH (VHH) VHH: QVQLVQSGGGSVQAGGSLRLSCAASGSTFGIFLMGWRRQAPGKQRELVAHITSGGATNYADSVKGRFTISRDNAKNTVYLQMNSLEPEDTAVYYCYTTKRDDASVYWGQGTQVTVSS | 8.37

# pKd (binder: NRCoV2-S2F3 VHH (VHH) VHH: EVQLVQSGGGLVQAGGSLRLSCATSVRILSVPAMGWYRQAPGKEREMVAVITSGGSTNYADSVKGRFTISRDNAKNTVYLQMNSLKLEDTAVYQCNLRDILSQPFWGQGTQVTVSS ) is 8.21
